# system: human Y4 receptor (human, UniProt P50391 1-375)
# Sequence (P50391 whole entry): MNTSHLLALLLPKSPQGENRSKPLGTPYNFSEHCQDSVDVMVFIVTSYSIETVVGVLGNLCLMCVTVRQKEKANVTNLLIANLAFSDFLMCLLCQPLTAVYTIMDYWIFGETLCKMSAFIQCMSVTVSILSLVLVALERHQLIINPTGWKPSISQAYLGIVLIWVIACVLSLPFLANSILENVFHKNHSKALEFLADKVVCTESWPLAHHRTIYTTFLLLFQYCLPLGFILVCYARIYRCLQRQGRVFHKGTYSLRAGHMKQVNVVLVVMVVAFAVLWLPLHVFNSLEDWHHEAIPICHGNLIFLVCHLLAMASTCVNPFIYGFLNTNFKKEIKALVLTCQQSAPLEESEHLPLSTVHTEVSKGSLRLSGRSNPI
# test description: 125I-PP displacement
measured parameter: IC50 (nM)

{"columns": ["binder", "measured parameter", "number"],
 "data": [
  ["AAPLEPVYPGDDATPQQMAHYYSELRRYINMLTRPRY [7138]", "IC50", 0.13],
  ["APLEPVYPGDNATPEELVKYYSALRHYINMLTRPRY [7103]", "IC50", 0.2],
  ["AAPLEPFYPGDDATPQQIAHYAAELRRYINTLTRPRY [7148]", "IC50", 0.16],
  ["HAPLEPFYPGDDATPQQMAHYAAELRRYINMLTRPRY [7146]", "IC50", 0.149]
]}

A = APLEPVYPGDNATPEELVKYAAELRRYINMLTRPRY [7163]
B = PAPLEPVYPGDDATPQQMAHYYSELRRYINMLTRPRY [7137]
Prompt: For the pair A and B , which member has the lower IC50 number? // output: label of the selected item
Response: B
